- experiment: Toxicity liver stage against HepG2, at 10uM
- Format: cell-based
- Design: test concentration 10 uM, cell line HepG2-A16-CD81EGFP
- study conditions: human, HepG2-A16-CD81EGFP cells; read-out: INHIBITION
observation type: cytotoxicity at 10 µM (%)
Numbers only, in %.

Below, each entry is followed by its recorded cytotoxicity at 10 µM result.
compound | test result
CCCNC(=O)CN1CCC(C(=O)Nc2cnn(CC)c2)CC1 | -2.04
N#Cc1cccc(CNC(=O)Nc2cccnc2N2CCCC2)c1 | -15.5

Give me cytotoxicity at 10 µM for each of these compounds, listed below.
1. Cc1cccc(N2CCOCC3(C2)CN(c2cnn(C)c2)C(=O)CO3)n1 (centres undefined)
2. Cc1nn2c(N3CCC(O)C3)cc(-c3ccccc3)nc2c1C (centres undefined)
3. O=C1CN(C(=O)C2CCOCC2)CCN1Cc1ccc(Cl)cc1
4. COCCCN1CCc2cncnc2C1
5. CC(C)c1cc(C(=O)N2CCc3nc(C4CCCN4)ncc3C2)cs1 (centres undefined)
6. C1CC(NCc2nc(C3CC3)no2)CN(Cc2noc(C3CC3)n2)C1 (centres undefined)

Reply:
1: -0.136; 2: -11.5; 3: -146; 4: -9.68; 5: -16.5; 6: -8.65

Please supply cytotoxicity at 10 µM for each of the following items, keeping them in order.
1. O=C(Nc1cccc(CN2CCOC2=O)c1)N1CCSCC1
2. Cc1cccc(N2CCN(Cc3nc(CC4CC4)no3)CC2)n1
3. CS(=O)(=O)N1CC(c2ncn3ccccc23)C1

Reply:
[-11.3, -10.1, 5.6]

// data source = ChEMBL document CHEMBL4513216
